Target: HLA-A*26:01
Experiment: IEDB peptide-MHC binding, purified MHC/competitive/fluorescence; filed as Kd, often an IC50 or EC50 that approximates it; bounds were set here for any values at or beyond the usual limits of such assays
Details: source organism: Entamoeba histolytica HM-1:IMSS
reported.metric: Kd

Task: Recorded Kd of `IGKMNKHYK` , please.
Output: ≥ 20 µM

---

Target: HLA-A*02:03
Test: IEDB peptide-MHC binding, purified MHC/competitive/fluorescence; filed as Kd, often an IC50 or EC50 that approximates it; bounds were set here for any values at or beyond the usual limits of such assays
Details: source organism: Entamoeba histolytica HM-1:IMSS
pKd: −log10 of the molar value.
reported.metric: pKd

Task: Given `IGKMNKHYK` , state its recorded pKd.
Output: ≤ 4.70
